system_under_test: T1, soluble CD4 (human, UniProt P01730 26-396)
T1 construct: extracellular domain
test_description: competitive ELISA against biotinylated mB-F5 on coated soluble CD4, 37 C 2 hours
value_kind: Relative binding activity (% of mB-F5)

Reported Relative binding activity (% of mB-F5) ( humanized B-F5 version H37V/L4M (antibody, V domains shown, also called hB-F5) VH: EEQLVESGGGLVKPGGSLRLSCAASGFSFSDCRMYWVRQAPGKGLEWIGVISVKSENYGANYAESVRGRFTISRDDSKNTVYLQMNSLKTEDTAVYYCSASYYRYDVGAWFAYWGQGTLVTVSS VL: DIVMTQSPDSLAVSLGERATINCRASKSVSTSGYSYIYWYQQKPGQPPKLLIYLASILESGVPDRFSGSGSGTDFTLTISSLQAEDVAVYYCQHSRELPWTFGQGTKVEIK ) = 10 % of mB-F5
